Consider the following compounds; for each one, report its CC50.
experiment: Concentration required to kill 50% HepG2 cells as detected by MTT staining; format: toxicity, cell-based; conditions: homo sapiens, read-out: TC50 (the source's name)
Write the answer as a number in µM, unit excluded.

State, in one line, measured CC50 of CCc1nn2cnc(-c3ccc(F)c(C(F)(F)F)c3)cc2c1-c1c(F)cc(O)cc1F
9.8

State, in one line, measured CC50 of Cc1nc2cnc(-c3ccc(F)c(C(F)(F)F)c3)cn2c1-c1c(F)cc(OP(=O)(O)O)cc1F
6.8

State, in one line, measured CC50 of CCc1nc2cnc(-c3ccc(F)c(C(C)C)c3)cn2c1-c1ccc2[nH]ncc2c1F
11.3

State, in one line, measured CC50 of CCc1nc2cnc(-c3ccc(F)c(C(F)(F)F)c3)cn2c1-c1c(F)cc(O)cc1F
8.3

State, in one line, measured CC50 of CC1(c2nc3cnc(-c4ccc(F)c(C(F)(F)F)c4)cn3c2-c2c(F)cc(O)cc2F)CC1
7.9

State, in one line, measured CC50 of CC(C)c1nc2cnc(-c3cccc(C(F)(F)F)c3)cn2c1-c1ccc2[nH]ncc2c1F
15.1

State, in one line, measured CC50 of Fc1c(-c2c(C3CC3)nc3cnc(-c4cccc(S(F)(F)(F)(F)F)c4)cn23)ccc2[nH]ncc12
20.7

State, in one line, measured CC50 of Fc1c(-c2c(C(F)(F)F)nc3cnc(-c4cccc(OC(F)(F)F)c4)cn23)ccc2[nH]ncc12
9.71

State, in one line, measured CC50 of CC(C)c1cc(-c2cn3c(-c4ccc5[nH]ncc5c4F)c(C(C)C)nc3cn2)ccc1F
11

====

Consider the following compounds; for each one, report its Binding.
experiment: Plasma protein binding determined at 10uM by LC-MS/MS.; type: ADME, cell-free; details: mouse
Write the answer as a number in %, unit excluded.

State, in one line, measured Binding of Cc1nc2cnc(-c3cccc(C(F)(F)F)c3)cn2c1-c1c(F)cc(O)cc1F
99.88

State, in one line, measured Binding of Cc1nc2cnc(-c3ccc(F)c(C(F)(F)F)c3)cn2c1-c1ccc(O)cc1F
99.805

State, in one line, measured Binding of COc1ccc(-c2c(C(C)C)nc3cnc(-c4cccc(C(F)(F)F)c4)cn23)cc1OP(=O)(O)O
96.79

State, in one line, measured Binding of COc1ccc(-c2c(C(F)(F)F)nc3cnc(-c4cccc(C(F)(F)C(F)(F)F)c4)cn23)cc1O
99.98

State, in one line, measured Binding of CCc1nc2cnc(-c3ccc(F)c(C(F)(F)C(F)(F)F)c3)cn2c1-c1c(F)cc(O)cc1F
99.9935

State, in one line, measured Binding of Fc1ccc(-c2cn3c(-c4ccc5[nH]ncc5c4F)c(C(F)(F)F)nc3cn2)cc1C(F)(F)C(F)(F)F
100

State, in one line, measured Binding of Oc1ccc(-c2c(C(F)(F)F)nc3cnc(-c4cccc(C(F)(F)F)c4)cn23)c(F)c1
99.965

State, in one line, measured Binding of Cc1nc2cnc(-c3ccc(F)c(C(F)(F)F)c3)cn2c1-c1c(F)cc(O)cc1F
99.865

State, in one line, measured Binding of CC(C)c1nn2cnc(-c3cccc(C(F)(F)F)c3)cc2c1-c1c(F)cc(O)cc1F
100

State, in one line, measured Binding of CCc1nc2cnc(-c3cccc(C(F)(F)F)c3)cn2c1-c1ccc(O)cc1F
99.87

State, in one line, measured Binding of Oc1ccc(-c2cnn3ccc(-c4cccc(C(F)(F)F)c4)cc23)c(F)c1
100

State, in one line, measured Binding of COc1ccc(-c2c(C(C)C)nc3cnc(-c4cccc(C(F)(F)F)c4)cn23)cc1O
99.93

State, in one line, measured Binding of Oc1cc(F)c(-c2c(C3CC3)nc3cnc(-c4ccc(F)c(C(F)(F)F)c4)cn23)c(F)c1
99.975

State, in one line, measured Binding of Fc1ccc(-c2cn3c(-c4ccc5[nH]ncc5c4F)c(C4CC4)nc3cn2)cc1C(F)(F)F
100

State, in one line, measured Binding of COc1ccc(-c2c(C)nn3cnc(-c4cccc(C(F)(F)F)c4)cc23)cc1O
99.935

State, in one line, measured Binding of CC(C)c1nc2cnc(-c3cccc(C(F)(F)F)c3)cn2c1-c1ccc(OP(=O)(O)O)cc1F
96.805

State, in one line, measured Binding of COc1cc(-c2c(C(C)C)nc3cnc(-c4cccc(C(F)(F)F)c4)cn23)cc2cn[nH]c12
99.95

State, in one line, measured Binding of Oc1cc(F)c(-c2cnc3cnc(-c4cccc(C(F)(F)F)c4)cn23)c(F)c1
99.595

State, in one line, measured Binding of CC(C)c1nc2cnc(-c3cccc(C(F)(F)F)c3)cn2c1-c1ccc(O)cc1F
99.945

State, in one line, measured Binding of CC(C)c1nc2cnc(-c3cccc(C(F)(F)F)c3)cn2c1-c1ccc2[nH]ncc2c1F
99.975

====

test: Mean time to peak plasma concentration in Swiss albino male mice at […] per compound (administered orally in a mixture of 5 compounds to 3 mice) assessed by LCMS/MS.; assay type: ADME, organism-based; conditions: mouse, po
Consider the following compounds; for each one, report its Tmax.
Write the answer as a number in min, unit excluded.

State, in one line, measured Tmax of COc1ccc(-c2c(C(C)C)nc3cnc(-c4ccnc(N(C)C)c4)cn23)cc1O
15

State, in one line, measured Tmax of COc1ccc(-c2c(C(C)C)nc3cnc(-c4cccc(C(F)(F)F)c4)cn23)cc1O
15

State, in one line, measured Tmax of CC(C)c1nc2cnc(-c3ccc(F)c(C(F)(F)F)c3)nc2n1-c1c(F)cc(O)cc1F
15

State, in one line, measured Tmax of CC(C)c1nc2cnc(-c3cccc(C(F)(F)F)c3)cn2c1-c1ccc2[nH]ncc2c1F
30

State, in one line, measured Tmax of Cc1c(-c2c(C(F)(F)F)nc3cnc(-c4ccc(F)c(C(F)(F)F)c4)cn23)ccc2[nH]ncc12
40

State, in one line, measured Tmax of CC(C)c1cc(-c2cn3c(-c4ccc5[nH]ncc5c4F)c(C(C)C)nc3cn2)ccc1F
30

State, in one line, measured Tmax of COc1cc(-c2c(C(C)C)nc3cnc(-c4cccc(C(F)(F)F)c4)cn23)cc2cn[nH]c12
30

State, in one line, measured Tmax of Fc1ccc(-c2cn3c(-c4ccc5[nH]ncc5c4F)c(C(F)(F)F)nc3cn2)cc1CC(F)(F)F
30

State, in one line, measured Tmax of Cc1nc2cnc(-c3ccc(F)c(C(F)(F)F)c3)cn2c1-c1c(F)cc(OP(=O)(O)O)cc1F
15

====

Consider the following compounds; for each one, report its remaining at 1.5 h, 1 µM.
test: Percentage of parent compound remaining after incubation for 90 minutes with cyropreserved mouse hepatocytes at a concentration of 1uM compound and […], determined by LCMS; format: ADME, tissue-based, Hepatocyte; conditions: cryopreserved mouse hepatocytes, read-out: Stability
Write the answer as a number in %, unit excluded.

State, in one line, measured remaining at 1.5 h, 1 µM of Cc1nc2cnc(-c3ccc(F)c(C(F)(F)C(F)(F)F)c3)cn2c1-c1c(F)cc(O)cc1F
31.6

State, in one line, measured remaining at 1.5 h, 1 µM of Cc1nc2cnc(-c3ccc(F)c(C(F)(F)F)c3)cn2c1-c1c(F)cc(OP(=O)(O)O)cc1F
40.8

State, in one line, measured remaining at 1.5 h, 1 µM of Fc1ccc(-c2cn3c(-c4ccc5[nH]ncc5c4F)c(C4CCC4)nc3cn2)cc1C(F)(F)F
73.4

====

test: Mean AUC inf in Swiss albino male mice at 1 mg/kg per compound (administered iv in a mixture of 5 compounds to 3 mice) assessed by LCMS/MS.; format: ADME, organism-based; conditions: male, Swiss albino, mouse, in vivo
Tick condition met if AUC(0-inf) is 400 ng·h/mL or greater. Tick condition not met if AUC(0-inf) is less than 400 ng·h/mL.

Hi, just wondering whether Cc1nc2cnc(-c3ccc(F)c(C(F)(F)F)c3)cn2c1-c1c(F)cc(OP(=O)(O)O)cc1F shows AUC(0-inf) of 400 ng·h/mL or higher.
condition not met

Hi, just wondering whether CC(C)c1nc2cnc(-c3ccc(F)c(C(F)(F)F)c3)cn2c1-c1c(F)cc(O)cc1F shows AUC(0-inf) of 400 ng·h/mL or higher.
condition met

Hi, just wondering whether Oc1ccc(-c2cnn3ccc(-c4cccc(C(F)(F)F)c4)cc23)c(F)c1 shows AUC(0-inf) of 400 ng·h/mL or higher.
condition not met

Hi, just wondering whether CC(C)c1nc2cnc(-c3cccc(C(F)(F)F)c3)cn2c1-c1ccc(OP(=O)(O)O)cc1F shows AUC(0-inf) of 400 ng·h/mL or higher.
condition not met

Hi, just wondering whether CC(C)c1nn2cnc(-c3ccc(F)c(C(F)(F)F)c3)cc2c1-c1c(F)cc(O)cc1F shows AUC(0-inf) of 400 ng·h/mL or higher.
condition not met

Hi, just wondering whether CCc1nc2cnc(-c3ccc(F)c(C(F)(F)F)c3)cn2c1-c1c(F)cc(O)cc1F shows AUC(0-inf) of 400 ng·h/mL or higher.
condition met

Hi, just wondering whether Fc1c(-c2c(C(F)(F)F)nc3cnc(-c4cccc(OC(F)(F)F)c4)cn23)ccc2[nH]ncc12 shows AUC(0-inf) of 400 ng·h/mL or higher.
condition met

Hi, just wondering whether Fc1ccc(-c2cn3c(-c4ccc5[nH]ncc5c4F)c(C(F)(F)F)nc3cn2)cc1CC(F)(F)F shows AUC(0-inf) of 400 ng·h/mL or higher.
condition not met

Hi, just wondering whether CCc1nc2cnc(-c3ccc(F)c(C(F)(F)F)c3)cn2c1-c1ccc2[nH]ncc2c1F shows AUC(0-inf) of 400 ng·h/mL or higher.
condition met

Hi, just wondering whether Cc1nc2cnc(-c3ccc(F)c(C(F)(F)F)c3)cn2c1-c1c(F)cc(O)cc1F shows AUC(0-inf) of 400 ng·h/mL or higher.
condition met

Hi, just wondering whether Fc1ccc(-c2cn3c(-c4ccc5[nH]ncc5c4F)c(C(F)(F)F)nc3cn2)cc1OC(F)(F)F shows AUC(0-inf) of 400 ng·h/mL or higher.
condition met
